Hello, the source for this data is ChEMBL document CHEMBL4483862, in case you need it.

- Test system: Plasmodium berghei
- EXPERIMENT_DESCRIPTION: Luciferase/luciferin-expressing antifolate-resistant parasites were used to infect a culture of HepG2 cells that were pre-incubated with compounds. Infected hepatocytes emit light due to the luciferase reaction. Assay results are presented as the percent inhibition of light emission compared to control. […]
- Format: functional
- EXPERIMENTAL_CONTEXT: sporozoite, HEPG2TOX_HILL_SLOPE 34.1, 11.7, HEPG2TOX_R_SQUARED 0.352, 0.945, PBLUC_HILL_SLOPE 13.4, PBLUC_R_SQUARED 0.235, read-out: LUCIFERASE INFECTION ASSAY - IC50
OUTCOME_MEASURE: pIC50
Please note pIC50 is a logarithmic value: minus log10 of concentration in mol/L. Answer with that number alone.

Noted for CC1CCC/C(=C(/C#N)c2nc(-c3ccccc3O)cs2)C1 (stereo unspecified) : its pIC50 reads 5.35

* * *

- Test system: Plasmodium berghei
- EXPERIMENT_DESCRIPTION: Luciferase/luciferin-expressing antifolate-resistant parasites were used to infect a culture of HepG2 cells that were pre-incubated with compounds. Infected hepatocytes emit light due to the luciferase reaction. Assay results are presented as the percent inhibition of light emission compared to control. […]
- Type: functional
- EXPERIMENTAL_CONTEXT: sporozoite, read-out: LUCIFERASE INFECTION ASSAY - IC50
pIC50: −log10 of the molar value.
Reported pIC50 is given for each of the following compounds.

Cc1cc(C)n2nc(SC(C)C(=O)N3CCCc4ccccc43)nc2n1 (stereo not given): < 5.70

Noted for `CCN(Cc1ccccc1)S(=O)(=O)c1cc(C(=O)OCc2ccccc2Cl)ccc1OC` : its pIC50 reads < 5.00

Noted for `CCCCn1nc(C(=O)Nc2nc(-c3ccc(CCNC(C)=O)cc3)cs2)c2ccccc2c1=O` : its pIC50 reads < 5.00

Noted for COc1cc(OC)cc(C(=O)Nc2nc(C(N)C3CCCCC3)cs2)c1 (stereo not given) : its pIC50 reads 5.28

Noted for `CCCCNC(=O)N1CCC(C(=O)c2c(C)c(C)c(C)c(C)c2C)CC1` : its pIC50 reads < 5.04

* * *

- Tested on: Plasmodium berghei
- EXPERIMENT_DESCRIPTION: Luciferase/luciferin-expressing antifolate-resistant parasites were used to infect a culture of HepG2 cells that were pre-incubated with compounds. Infected hepatocytes emit light due to the luciferase reaction. Assay results are presented as the percent inhibition of light emission compared to control. […]
- Assay type: functional
- EXPERIMENTAL_CONTEXT: sporozoite, FFLUC_HILL_SLOPE 2.44, FFLUC_R_SQUARED 0.232, HEPG2TOX_HILL_SLOPE 1.29, HEPG2TOX_R_SQUARED 0.958, PBLUC_HILL_SLOPE 8.61, PBLUC_R_SQUARED 0.878, read-out: LUCIFERASE INFECTION ASSAY - IC50
OUTCOME_MEASURE: IC50 (µM)
Just the number in µM, nothing appended.

Noted for `COc1ccc(CCn2cnc3c(cnn3-c3ccc(C)cc3)c2=O)cc1` : its IC50 reads 0.103

* * *

- System: Plasmodium berghei
- EXPERIMENT_DESCRIPTION: Luciferase/luciferin-expressing antifolate-resistant parasites were used to infect a culture of HepG2 cells that were pre-incubated with compounds. Infected hepatocytes emit light due to the luciferase reaction. Assay results are presented as the percent inhibition of light emission compared to control. […]
- Format: functional
- EXPERIMENTAL_CONTEXT: sporozoite, HEPG2TOX_HILL_SLOPE 12.7, HEPG2TOX_R_SQUARED 0.0314, PBLUC_HILL_SLOPE 8.39, PBLUC_R_SQUARED 0.486, read-out: LUCIFERASE INFECTION ASSAY - IC50
OUTCOME_MEASURE: pIC50
Please note pIC50 is a logarithmic value: minus log10 of concentration in mol/L. Answer with that number alone.

Oc1c(C(c2ccccc2Cl)N2CCCC2)ccc2cccnc12 (stereo unspecified) on Plasmodium berghei gives pIC50 = 5.42
